System: RPMI 8402
experimental protocol: Inhibitory concentration against lymphoblast RPMI 8402 cell line was determined
Format: functional, cell-based
condition parameters: Homo sapiens
# key: entry, value: IC50
Give just the number in nM; leave the unit off.

COc1cc2c(=O)n(CCNC(C)(C)C)c3c4cc5c(cc4ncc3c2cc1OC)OCO5 | 2
COc1cc2c(=O)n(CCNC(C)C)c3c4cc5c(cc4ncc3c2cc1OC)OCO5 | 3
COc1cc2c(=O)n(CCNCc3ccccc3)c3c4cc5c(cc4ncc3c2cc1OC)OCO5 | 16
COc1cc2c(=O)n(CCN(Cc3ccccc3)Cc3ccccc3)c3c4cc5c(cc4ncc3c2cc1OC)OCO5 | 380
COc1cc2c(=O)n(CCN3CCCCC3)c3c4cc5c(cc4ncc3c2cc1OC)OCO5 | 7
COc1cc2c(=O)n(CCN3CCN(C)CC3)c3c4cc5c(cc4ncc3c2cc1OC)OCO5 | 300

# input for lookup
Prompt: For the molecule "COc1cc2c(=O)n(CCN3CCCC3)c3c4cc5c(cc4ncc3c2cc1OC)OCO5" , what IC50 is on record?
Response: 3

----------
experimental protocol: Inhibitory concentration against KB/V-1 cells overexpress MDR1
Assay type: functional, cell-based
condition parameters: Homo sapiens
# key: entry, value: IC50

Observe how each entry below is paired with its result.
COc1cc2c(=O)n(CCNCc3ccccc3)c3c4cc5c(cc4ncc3c2cc1OC)OCO5 | 35 nM
CCNCCn1c(=O)c2cc(OC)c(OC)cc2c2cnc3cc4c(cc3c21)OCO4 | 16 nM
COc1cc2c(=O)n(CCN3CCCC3)c3c4cc5c(cc4ncc3c2cc1OC)OCO5 | 8 nM
CNCCn1c(=O)c2cc(OC)c(OC)cc2c2cnc3cc4c(cc3c21)OCO4 | 22 nM

Prompt: For the compound "COc1cc2c(=O)n(CCN(C)C(C)C)c3c4cc5c(cc4ncc3c2cc1OC)OCO5" , what IC50 is on record?
Response: 3 nM

Prompt: For the compound "COc1cc2c(=O)n(CCN(Cc3ccccc3)C(C)C)c3c4cc5c(cc4ncc3c2cc1OC)OCO5" , what IC50 is on record?
Response: 4000 nM

Prompt: For the compound "CCN(CCn1c(=O)c2cc(OC)c(OC)cc2c2cnc3cc4c(cc3c21)OCO4)Cc1ccccc1" , what IC50 is on record?
Response: 400 nM

Prompt: For the compound "CCN(CC)CCn1c(=O)c2cc(OC)c(OC)cc2c2cnc3cc4c(cc3c21)OCO4" , what IC50 is on record?
Response: 15 nM

----------
# key: entry, value: pIC50
System: RPMI 8402
experimental protocol: Cytotoxicity against camptothecin-resistant RPMI 8402
Format: functional, cell-based
condition parameters: Homo sapiens
Please treat pIC50 as minus the base-10 logarithm of the molar concentration.

Prompt: For the molecule "COc1cc2c(=O)n(CCN3CCN(C)CC3)c3c4cc5c(cc4ncc3c2cc1OC)OCO5" , what pIC50 is on record?
Response: 5.23

----------
# key: entry, value: pIC50
Test system: KB 3-1
experimental protocol: Inhibitory concentration against KB3-1 cell line was determined
Format: functional, cell-based
condition parameters: Homo sapiens
Please treat pIC50 as minus the base-10 logarithm of the molar concentration.

COc1cc2c(=O)n(CCN3CCN(C)CC3)c3c4cc5c(cc4ncc3c2cc1OC)OCO5 | 6.30
COc1cc2c(=O)n(CCN(C)Cc3ccccc3)c3c4cc5c(cc4ncc3c2cc1OC)OCO5 | 7.30
COc1cc2c(=O)n(CCNC(C)(C)C)c3c4cc5c(cc4ncc3c2cc1OC)OCO5 | 8.52
COc1cc2c(=O)n(CCN(Cc3ccccc3)Cc3ccccc3)c3c4cc5c(cc4ncc3c2cc1OC)OCO5 | 6.52
CCN(CCn1c(=O)c2cc(OC)c(OC)cc2c2cnc3cc4c(cc3c21)OCO4)Cc1ccccc1 | 6.74
COc1cc2c(=O)n(CCN3CCCC3)c3c4cc5c(cc4ncc3c2cc1OC)OCO5 | 8.52
CCNCCn1c(=O)c2cc(OC)c(OC)cc2c2cnc3cc4c(cc3c21)OCO4 | 9.00
COc1cc2c(=O)n(CCN(Cc3ccccc3)C(C)C)c3c4cc5c(cc4ncc3c2cc1OC)OCO5 | 6.10

Prompt: For the compound "CCN(CC)CCn1c(=O)c2cc(OC)c(OC)cc2c2cnc3cc4c(cc3c21)OCO4" , what pIC50 is on record?
Response: 8.40

Prompt: For the compound "COc1cc2c(=O)n(CCN3CCNCC3)c3c4cc5c(cc4ncc3c2cc1OC)OCO5" , what pIC50 is on record?
Response: 7.00

Prompt: For the compound "COc1cc2c(=O)n(CCN)c3c4cc5c(cc4ncc3c2cc1OC)OCO5" , what pIC50 is on record?
Response: 8.30
